Target: Cbl-B (Homo sapiens)
Construct: MSD-Based Assay for Degradation of Cbl-B in THP-1 Cells; endogenous in cells; host or cells: THP-1 (title) / Jurkat (protocol text)
Test: MSD-based assay for degradation of Cbl-B in THP-1 cells
Type: cell-based
Conditions: Cbl-B degradation, Jurkat cells seeded (heading: THP-1 cells), 24 hours incubation, MSD readout
readout type: DC50

Recorded result, CO[C@H]1C[C@](c2cccc(-n3cc4c(C(F)(F)F)cc(CN5CCC(COCc6ccc(CN7CCN(c8ccc9c(c8)CN([C@H]8CCC(=O)NC8=O)C9=O)CC7)cc6)CC5)cn4c3=O)c2)(c2nncn2C)C1 [Compound 224] , DC50: < 0.03 µM

Recorded result, CN(CCOC1CCN(Cc2cc(C(F)(F)F)c3cn(-c4cccc([C@H](c5nncn5C)C5CCC5)c4)c(=O)n3c2)CC1)C(=O)c1ccc(C2CCN(c3ccc4c(c3)CN([C@H]3CCC(=O)NC3=O)C4=O)CC2)cc1 (single isomer, unassigned) [Compound 108] , DC50: < 0.03 µM

Recorded result, Cn1cnnc1CC1(c2cccc(-n3cc4c(C(F)(F)F)cc(CN5CCC[C@@H](OCc6ccc(CN7CCN(c8ccc9c(c8)CN(C8CCC(=O)NC8=O)C9=O)CC7)cc6)C5)cn4c3=O)c2)COC1 (stereo partly shown) [Compound 96] , DC50: 0.03 to 0.3 µM

Recorded result, Cn1cnnc1CC1(c2cccc(-n3cc4c(C(F)(F)F)cc(CN5CCN(CCN6CCC(CN7CCN(c8ccc9c(c8)CN([C@H]8CCC(=O)NC8=O)C9=O)CC7)CC6)CC5)cn4c3=O)c2)COC1 [Compound 62] , DC50: 0.03 to 0.3 µM

---

Biological target: Cbl-B (Homo sapiens, UniProt Q13191)
Construct: MSD-Based Assay for Degradation of Cbl-B in THP-1 Cells; endogenous in cells; host or cells: THP-1 (title) / Jurkat (protocol text)
Sequence (Q13191 whole entry): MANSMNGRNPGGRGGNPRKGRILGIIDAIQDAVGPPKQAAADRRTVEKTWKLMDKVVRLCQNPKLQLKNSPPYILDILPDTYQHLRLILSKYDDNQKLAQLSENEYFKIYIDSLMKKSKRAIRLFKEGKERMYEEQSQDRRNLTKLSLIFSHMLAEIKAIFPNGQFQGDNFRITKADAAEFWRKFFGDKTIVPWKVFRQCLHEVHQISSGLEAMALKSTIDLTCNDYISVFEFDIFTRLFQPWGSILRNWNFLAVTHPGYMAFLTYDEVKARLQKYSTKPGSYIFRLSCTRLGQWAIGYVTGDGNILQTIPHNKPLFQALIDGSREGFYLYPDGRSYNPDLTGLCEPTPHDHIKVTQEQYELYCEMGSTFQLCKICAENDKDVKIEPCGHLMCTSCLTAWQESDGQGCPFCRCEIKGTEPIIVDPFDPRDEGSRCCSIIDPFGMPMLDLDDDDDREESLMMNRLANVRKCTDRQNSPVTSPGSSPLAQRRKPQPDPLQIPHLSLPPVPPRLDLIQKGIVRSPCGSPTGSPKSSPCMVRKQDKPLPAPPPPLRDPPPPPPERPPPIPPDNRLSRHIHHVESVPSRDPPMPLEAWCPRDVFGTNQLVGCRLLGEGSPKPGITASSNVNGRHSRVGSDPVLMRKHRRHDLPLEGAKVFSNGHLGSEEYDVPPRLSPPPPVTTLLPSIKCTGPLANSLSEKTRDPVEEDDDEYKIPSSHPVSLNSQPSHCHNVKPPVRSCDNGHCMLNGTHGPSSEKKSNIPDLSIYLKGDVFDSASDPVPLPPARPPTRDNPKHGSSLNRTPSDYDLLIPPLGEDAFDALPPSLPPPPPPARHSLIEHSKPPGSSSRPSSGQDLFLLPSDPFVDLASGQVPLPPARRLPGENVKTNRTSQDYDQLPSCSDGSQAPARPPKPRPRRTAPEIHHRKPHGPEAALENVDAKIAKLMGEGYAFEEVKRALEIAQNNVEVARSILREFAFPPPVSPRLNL
Assay: MSD-based assay for degradation of Cbl-B in THP-1 cells
Format: cell-based
Details: Cbl-B degradation, Jurkat cells seeded (heading: THP-1 cells), 24 hours incubation, MSD readout
readout type: DC50

Cbl-B (Homo sapiens, UniProt Q13191) DC50 of CO[C@H]1C[C@@](c2cccc(-n3cc4c(C(F)(F)F)cc(CN5CCC(CN(C)C(=O)c6ccc(N7CCN(c8ccc9c(c8)CN([C@H]8CCC(=O)NC8=O)C9=O)CC7)cc6)CC5)cn4c3=O)c2)(c2nncn2C)C1 is 30 to 300 nM

Cbl-B (Homo sapiens, UniProt Q13191) DC50 of Cn1cnnc1CC1(c2cccc(-n3cc4c(C(F)(F)F)cc(CN5CCC(OCc6ccc(N7CCN(c8ccc9c(c8)CN([C@@H]8CCC(=O)NC8=O)C9=O)CC7)cc6)CC5)cn4c3=O)c2)COC1 (single isomer, unassigned) is 30 to 300 nM

---

Exercise: for every item that follows, state its recorded Dmax.
Target: Cbl-B (Homo sapiens)
Construct: MSD-Based Assay for Degradation of Cbl-B in THP-1 Cells; endogenous in cells; host or cells: THP-1 (title) / Jurkat (protocol text)
Assay: MSD-based assay for degradation of Cbl-B in THP-1 cells
Type: cell-based
Conditions: Cbl-B degradation, Jurkat cells seeded (heading: THP-1 cells), 24 hours incubation, MSD readout; read-out: Dmax

Recorded result, Cn1cnnc1[C@@H](c1cccc(N2Cc3c(cc(CN4CCC[C@@H](OCc5ccc(CC6CCN(c7ccc8c(c7)CN([C@H]7CCC(=O)NC7=O)C8=O)CC6)cc5)C4)cc3C(F)(F)F)C2=O)c1)C1CCC1 (single isomer, unassigned) [Compound 194] , Dmax: 30 to 50%

Recorded result, Cn1cnnc1[C@@H](c1cccc(-n2cc3c(C(F)(F)F)cc(CN4CCN(CCc5ccc(C6CCN(c7ccc8c(c7)CN([C@H]7CCC(=O)NC7=O)C8=O)CC6)cc5)CC4)cn3c2=O)c1)C1CCC1 (single isomer, unassigned) [Compound 228] , Dmax: > 70%

Recorded result, Cn1cnnc1[C@@H](c1cccc(-n2cc3c(C(F)(F)F)cc(CN4CCC(CC(=O)N5CCC(CC6CCN(c7ccc8c(c7)CN([C@H]7CCC(=O)NC7=O)C8=O)CC6)CC5)CC4)cn3c2=O)c1)C1CCC1 [Compound 176] , Dmax: > 70%

Recorded result, Cn1cnnc1[C@@H](c1cccc(N2Cc3c(cc(CN4CCC(OCCN5CCC(CN6CCN(c7ccc8c(c7)CN([C@@H]7CCC(=O)NC7=O)C8=O)CC6)CC5)CC4)cc3C(F)(F)F)C2=O)c1)C1CCC1 [Compound 65] , Dmax: 50 to 70%

---

Target: Cbl-B (Homo sapiens)
Construct: MSD-Based Assay for Degradation of Cbl-B in THP-1 Cells; endogenous in cells; host or cells: THP-1 (title) / Jurkat (protocol text)
Experiment: MSD-based assay for degradation of Cbl-B in THP-1 cells
Type: cell-based
Conditions: Cbl-B degradation, Jurkat cells seeded (heading: THP-1 cells), 24 hours incubation, MSD readout
Exercise: for every item that follows, state its recorded DC50.

Recorded result, Cn1cnnc1[C@@H](c1cccc(-n2cc3c(C(F)(F)F)cc(CN4CCN(CCc5ccc(N6CCN(c7ccc8c(c7)CN([C@H]7CCC(=O)NC7=O)C8=O)CC6)cc5)CC4)cn3c2=O)c1)C1CCC1 (single isomer, unassigned) [Compound 126] , DC50: < 30 nM

Recorded result, Cn1cnnc1[C@@H](c1cccc(-n2cc3c(C(F)(F)F)cc(CN4CCC(O[C@H]5CCCN(C(=O)c6ccc(N7CCN(c8ccc9c(c8)CN([C@H]8CCC(=O)NC8=O)C9=O)CC7)cc6)C5)CC4)cn3c2=O)c1)C1CCC1 (single isomer, unassigned) [Compound 248] , DC50: < 30 nM

Recorded result, Cn1cnnc1CC1(c2cccc(-n3cc4c(C(F)(F)F)cc(CN5CCC(OCCOCc6ccc(CN7CCN(c8ccc9c(c8)CN([C@@H]8CCC(=O)NC8=O)C9=O)CC7)cc6)CC5)cn4c3=O)c2)COC1 (single isomer, unassigned) [Compound 219] , DC50: 30 to 300 nM

Recorded result, Cn1cnnc1CC1(c2cccc(-n3cc4c(C(F)(F)F)cc(CN5CCN(C(=O)CN6CCC(CN7CCN(c8ccc9c(c8)CN([C@H]8CCC(=O)NC8=O)C9=O)CC7)CC6)CC5)cn4c3=O)c2)COC1 (single isomer, unassigned) [Compound 132] , DC50: < 30 nM

Recorded result, Cn1cnnc1CC1(c2cccc(-n3cc4c(C(F)(F)F)cc(CN5CCC(C6CCN(C(=O)c7ccc(N8CCN(c9ccc%10c(c9)CN([C@@H]9CCC(=O)NC9=O)C%10=O)CC8)cc7)CC6)CC5)cn4c3=O)c2)COC1 [Compound 261] , DC50: < 30 nM

Recorded result, Cn1cnnc1CC1(c2cccc(-n3cc4c(C(F)(F)F)cc(CN5CCC(OCc6ccc(C7CCN(c8ccc9c(c8)CN([C@@H]8CCC(=O)NC8=O)C9=O)CC7)cc6)CC5)cn4c3=O)c2)COC1 (single isomer, unassigned) [Compound 205] , DC50: 30 to 300 nM

Recorded result, CN(CCC(=O)N1CCC(CN2CCN(c3ccc4c(c3)CN([C@H]3CCC(=O)NC3=O)C4=O)CC2)CC1)Cc1cc(C(F)(F)F)c2cn(-c3cccc([C@H](c4nncn4C)C4CCC4)c3)c(=O)n2c1 (single isomer, unassigned) [Compound 120] , DC50: 30 to 300 nM

Recorded result, Cn1cnnc1[C@@H](c1cccc(-n2cc3c(C(F)(F)F)cc(CN4CCC(OCCOCc5ccc(CN6CCN(c7cccc8c7C(=O)N(C7CCC(=O)NC7=O)C8=O)CC6)cc5)CC4)cn3c2=O)c1)C1CCC1 (some centres unmarked) [Compound 24] , DC50: > 10000 nM

---

Exercise: for every item that follows, state its recorded DC50.
Biological target: Cbl-B (Homo sapiens, UniProt Q13191)
Construct: MSD-Based Assay for Degradation of Cbl-B in THP-1 Cells; endogenous in cells; host or cells: THP-1 (title) / Jurkat (protocol text)
Assay: MSD-based assay for degradation of Cbl-B in THP-1 cells
Type: cell-based
Details: Cbl-B degradation, Jurkat cells seeded (heading: THP-1 cells), 24 hours incubation, MSD readout

Recorded result, Cn1cnnc1CC1(c2cccc(-n3cc4c(C(F)(F)F)cc(CN5CCC[C@H](OCc6ccc(CN7CCN(c8ccc9c(c8)CN([C@@H]8CCC(=O)NC8=O)C9=O)CC7)cc6)C5)cn4c3=O)c2)COC1 (single isomer, unassigned) , DC50: > 10000 nM

Recorded result, Cn1cnnc1[C@@H](c1cccc(-n2cc3c(C(F)(F)F)cc(CN4CCC(N5CCC(CN6CCN(c7ccc8c(c7)CN([C@H]7CCC(=O)NC7=O)C8=O)CC6)CC5)CC4)cn3c2=O)c1)C1CCC1 , DC50: 30 to 300 nM

Recorded result, Cn1cnnc1[C@@H](c1cccc(-n2cc3c(C(F)(F)F)cc(CN4CC(OCCN5CCC(CN6CCN(c7ccc8c(c7)CN(C7CCC(=O)NC7=O)C8=O)CC6)CC5)C4)cn3c2=O)c1)C1CCC1 (stereo partly shown) , DC50: > 10000 nM

Recorded result, Cn1cnnc1CC1(c2cccc(-n3cc4c(C(F)(F)F)cc(CN5CCC(OCc6ccc(CN7CCN(c8ccc9c(c8)CN([C@@H]8CCC(=O)NC8=O)C9=O)CC7)cc6)CC5)cn4c3=O)c2)COC1 (single isomer, unassigned) , DC50: 30 to 300 nM
